assay: Half life in Sprague-Dawley rat at 10 mg/kg, po; type: ADME, organism-based; set-up: dose 10 mg/kg, route oral; conditions: in vivo
For each record, write down the corresponding half-life.
One number for each entry, in h.

>  <structure.notation>
Cc1cccc(-c2[nH]c(CNc3ccccc3F)nc2-c2ccc3ncnn3c2)n1.Cl

>  <half-life / h>
2.5

$$$$
>  <structure.notation>
Cc1cccc(-c2[nH]c(CNc3cccc(C#N)c3CN(C)C)nc2-c2ccc3ncnn3c2)n1.Cl

>  <half-life / h>
0.4

$$$$

Task: Tell me the measured half-life of Cc1cccc(-c2[nH]c(CNc3cccc(C#N)c3)nc2-c2ccc3ncnn3c2)n1.Cl , please.
Output: 2.3
